measurement_description: Toxicity liver stage against HepG2, at 10uM
Assay type: cell-based
Set-up: test concentration 10 uM, cell line HepG2-A16-CD81EGFP
condition_label: human, HepG2-A16-CD81EGFP cells; read-out: INHIBITION

| compound | cytotoxicity at 10 µM, % |
| --- | --- |
| CN(C)c1cc2c(nn1)CCN(C(=O)C1COc3ccccc3C1)C2 (stereo unspecified) | 14.3 |
| CN(CC(F)(F)F)C(=O)CNC(=O)N1CCCC(C(F)(F)F)C1 (stereo unspecified) | 0.601 |
| CC(=O)c1ccc(N2CCN(C(=O)c3cc(C(C)C)nn3C)CC2)cc1 | 11 |
| Cc1cccc2c1cnn2CCCNC(=O)C(C)C | -2.12 |
| O=C(NC[C@H]1CCCC[C@H]1O)c1ccc2nc(-c3ccco3)[nH]c2c1 | -5.78 |
| CCc1nccn1C1CCCN(C(=O)CCc2nc(C(C)C)no2)C1 (stereo unspecified) | 5.93 |

###

measurement_description: Toxicity liver stage against HepG2, at 10uM
Assay type: cell-based
Parameters: test concentration 10 uM, cell line HepG2-A16-CD81EGFP
condition_label: human, HepG2-A16-CD81EGFP cells; read-out: INHIBITION

| compound | quantity_unit | cytotoxicity at 10 µM |
| --- | --- | --- |
| Cn1nc2c(cc1=O)CN(Cc1nc(-c3ccccn3)no1)CC2 | % | -3.51 |
| COCCN1C[C@@H]2CN(C(=O)[C@H]3CCCO3)C[C@@H]2C1=O | % | 5.82 |
| CN(C)C(=O)CN1C[C@H]2CC[C@@H](C1)N(Cc1ccccc1C#N)C2 | % | -0.898 |
| CC(C)NC(=O)Nc1ccc(CS(C)(=O)=O)cc1 | % | 1.69 |
| Cc1cccc(N2CCC(NC(C)c3cccs3)CC2)n1 (stereo not drawn) | % | -17.2 |
| CC(NC1(CNC(=O)CC(C)(C)C)CCOCC1)c1ccccc1 (stereo not drawn) | % | 8.57 |
| Cn1ncc(NCc2cccc(OCC(F)(F)F)c2)c(Cl)c1=O | % | 22.1 |
| CCc1cccc2cc(CNCCCN3CCOCC3)c(=O)[nH]c12 | % | -0.918 |
| COc1c(CNCc2ccnc(N3CCCCC3)c2)c(C)nn1C | % | 10.1 |
| Cc1nnc(N2CC[C@H]3C[C@H](C(=O)N4CCOCC4)O[C@H]3C2)s1 | % | -0.671 |
| O=C1CC(NCc2ccncc2)CN1Cc1cccc(F)c1 (stereo not drawn) | % | -7.12 |
| Cn1ccnc1C1CCCN(C(=O)c2ccc3nccnc3c2)C1 (stereo not drawn) | % | 19.7 |
| CC(C(=O)O)N1CCc2onc(-c3ccc4c(c3)OCO4)c2C1 (stereo not drawn) | % | -6.46 |
| CCc1nc(CN2CCCC(NCc3nc4cccnc4[nH]3)C2)no1 (stereo not drawn) | % | 1.92 |
| COC[C@@H]1CC[C@H]2[C@H](CCN2S(=O)(=O)c2ccc(OC)cc2)O1 | % | 0.796 |
| CCCc1noc(C2CCN(S(=O)(=O)c3cccs3)CC2)n1 | % | 1.5 |
| CN1CCCCC1C(=O)N1CCN(c2ccccc2C#N)CC1 (stereo not drawn) | % | -6.85 |
| CCCn1c(O)nnc1SCC1OCCc2ccccc21 (stereo not drawn) | % | 4.32 |
| COc1cccc(N2CCN(Cc3ncc[nH]3)CC2=O)c1 | % | -5.73 |
| Cc1cn2nc(N3CCCC3CC(C)(C)C)sc2n1 (stereo not drawn) | % | 3.46 |
| O=C(C1CCOCC1)N1CCOCC(Cc2ncccn2)C1 (stereo not drawn) | % | 1.38 |
| O=C([C@H]1C[C@H]2OCC[C@H]2N(C(=O)c2cnccn2)C1)N1CCCCO1 | % | 12.7 |
| Cc1ncc(C)c(N2CCC(CCc3ccccc3)(C(=O)O)CC2)n1 | % | 3.49 |
